system: SK-OV-3; experiment: NCI tumour cell line growth inhibition, 48 h
Activity calls are given as the source filed them. Rule as the data show it: active = GI50 up to about 1.1 µM and inactive = higher.
Entry note: the call must match one of True = active, False = inactive

See these solved cases before continuing.
| structure-notation | cat |
| --- | --- |
| COc1cc([C@@H]2c3cc4c(cc3[C@@H](NCCCN(C)C)[C@H]3COC(=O)[C@H]23)OCO4)cc(OC)c1O | True |
| COC(=O)C1=C(C(=O)OC)SC2(S1)C(C(=O)OC)=C(C(=O)OC)Sc1c2ss/c1=N/C(C)(C)C | False |
| COc1ccccc1NC(=O)C1=C(C)NC(C)=C(C(=O)Nc2ccccc2OC)C1c1ccccc1F | False |

# evaluate next
Inquiry: Hi team, can someone confirm the assay call for CC(=O)NNc1nc(C)c(C(=O)NNC(=O)C(=O)Nc2ccc(C)c(C)c2)s1 ?
Reply text: False

* * *

tested on: SNB-75; assay: NCI tumour cell line growth inhibition, 48 h
Calls of active or inactive are those of the source. Cut-off read from the data, not from the text of the source: active = GI50 up to about 1.1 µM and inactive = higher.
recorded-endpoint: GI50

Below, 4 compounds whose answers are already recorded.
| compound | GI50 |
| --- | --- |
| CN1C(=O)C(=CN(C)c2ccccc2)C(=O)N(C)C1=O | 92.7 µM (inactive) |
| O=c1[nH]nc(Cc2ccc(Cl)cc2)n1/N=C/c1cccs1 | 19.1 µM (inactive) |
| COc1cc(I)c2c3c1OC1C34CCN(C)C(C2)C4=CC(I)C1(OC)OC (stereo not given) | 15.9 µM (inactive) |
| CCOc1cc(C=O)ccc1O [ETHYL VANILLIN] | 95.1 µM (inactive) |

Record COC(CC1(/C=C/O[Si](C(C)C)(C(C)C)C(C)C)C(=O)N(COCC[Si](C)(C)C)c2ccccc21)OC (stereo not given) , field GI50: 81.8 µM (inactive)

What the record says about COc1ccc(Br)c(CN2CCc3ccccc32)c1OS(=O)(=O)c1ccc(C)cc1 : GI50 is 19.2 µM (inactive)

Recorded result, C=C(C)C(=O)O[C@H]1CC2=CC(CC(C)=C[C@H]3OC(=O)C(=C)C13)OC2=O (stereo not given in full) , GI50: > 100 µM (inactive)

So for CC1(O)CC2C(CC1SC1CC3C(CC1(C)O)C3(C)C)C2(C)C (stereo not given) , the logged GI50 turned out to be 27.9 µM (inactive)

Value of measured GI50 for the entry O=C(CC1(O)C(=O)Nc2c(Cl)cc(Cl)cc21)c1ccco1 (stereo not given) : 29 µM (inactive)

* * *

test system: KM-20L2; assay: NCI tumour cell line growth inhibition, 48 h
Activity calls are given as the source filed them. Cut-off read from the data, not from the text of the source: active = GI50 up to about 1.1 µM and inactive = higher.
Recorded GI50 for the following compounds

| compound | system | GI50 |
| --- | --- | --- |
| c1ccc(OCCSCCCCCCCCCCSCCOc2ccccc2)cc1 | KM-20L2 | > 100 µM (inactive) |
| COc1cc(C2C(C(=O)Nc3ccccc3C)=C(C)NC(C)=C2C(=O)Nc2ccccc2C)ccc1O | KM-20L2 | > 100 µM (inactive) |
| CCN(c1n[n+]2c(-c3ccccc3)csc2s1)c1n[n+]2c(-c3ccccc3)csc2s1 | KM-20L2 | 72.8 µM (inactive) |
| CN1c2ccccc2N(C(=O)c2ccc([N+](=O)[O-])cc2)C(CC(=O)O)c2cccn21 (centres undefined) | KM-20L2 | > 100 µM (inactive) |
| CN(C)CCNC(=O)c1cccc2cc3cc(O)ccc3nc12 | KM-20L2 | 2.44 µM (inactive) |
| COc1ccc(Cc2cc(OC)c(OC)c(OC)c2)cc1O | KM-20L2 | 51.6 µM (inactive) |
| CC(=O)NC1C(OCc2ccccc2)OC(COC(=O)CCCCCCCCCCNC(=O)CCNc2ccc([N+](=O)[O-])c3[nH]c4ccc(O)cc4c(=O)c23)C(O)C1OC(C)C(=O)N[C@H](C(=O)N[C@H](CCC(=O)O)C(N)=O)C(C)C (some centres undefined) | KM-20L2 | 25.4 µM (inactive) |
| CS(=O)(=O)N/N=C/CN1C(=O)c2ccccc2C1=O | KM-20L2 | > 100 µM (inactive) |

Now let's try a different one.
The compound listed as Cc1cccc(C)c1NC(=O)CCC(=O)/N=C(\N)NC#N shows GI50 equal to > 100 µM (inactive)
